System: 855422-203-R-J1-PDC complex spheroids, viability;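 also: spheroids exposed to drugs for seven days before readout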
Experiment: Anticancer human tumor 855422-203-R-J1-PDC patient-derived bladder carcinoma cell line growth inhibition [CLK]; active = viability on the fitted dose curve at most 10% of control; inactive = the rest
Conditions: second compound 1 µM; first compound 0.1 µM
Reply using exactly one outcome from active, inactive

• CC(CO)NC(=O)c1cc(-c2ccc(Cl)cc2)nn(-c2cnn(C)c2)c1=O (configuration not stated) + CNC(=O)c1ccc(Nc2nc(OC3CCCC3)c3c(-c4ccc5nc(C)oc5c4)c[nH]c3n2)c(OC)c1 = inactive

Exam item: Could you check what this test reported for O=c1[nH]cc(F)c(=O)[nH]1 + CN1CCN(c2cc(C(=O)Nc3cc4cc(-c5cnn(C)c5)ccc4cn3)ccn2)CC1 ?
Marked response: active

Exam item: In this assay, the call recorded for O=C(c1cc(Cc2n[nH]c(=O)c3ccccc23)ccc1F)N1CCN(C(=O)C2CC2)CC1 + CNC(=O)c1ccc(Nc2nc(OC3CCCC3)c3c(-c4ccc5nc(C)oc5c4)c[nH]c3n2)c(OC)c1 was what?
Marked response: inactive

Exam item: What did the test return for O=c1[nH]cc(F)c(=O)[nH]1 + CNC(=O)c1ccc(Nc2nc(OC3CCCC3)c3c(-c4ccc5nc(C)oc5c4)c[nH]c3n2)c(OC)c1 ?
Marked response: inactive

Exam item: Record request — test call for Nc1ccccc1NC(=O)c1ccc(CNC(=O)OCc2cccnc2)cc1 + CNC(=O)c1ccc(Nc2nc(OC3CCCC3)c3c(-c4ccc5nc(C)oc5c4)c[nH]c3n2)c(OC)c1
Marked response: inactive

Exam item: Just curious, what result did Nc1ccn(C2OC(CO)C(O)C2(F)F)c(=O)n1 (configuration not stated) + CNC(=O)c1ccc(Nc2nc(OC3CCCC3)c3c(-c4ccc5nc(C)oc5c4)c[nH]c3n2)c(OC)c1 get here?
Marked response: inactive

Exam item: Fill in: this test's call for CC1(C)CCC(CN2CCN(c3ccc(C(=O)NS(=O)(=O)c4ccc(NCC5CCOCC5)c([N+](=O)[O-])c4)c(Oc4cnc5[nH]ccc5c4)c3)CC2)=C(c2ccc(Cl)cc2)C1 + CNC(=O)c1ccc(Nc2nc(OC3CCCC3)c3c(-c4ccc5nc(C)oc5c4)c[nH]c3n2)c(OC)c1 is ___
Marked response: inactive
